So I've got a bunch of compounds here, and I need their pKi values.
- ASSAY_SYSTEM: bovine trypsin (Bos taurus, UniProt P00760)
- Sequence (P00760 24-246): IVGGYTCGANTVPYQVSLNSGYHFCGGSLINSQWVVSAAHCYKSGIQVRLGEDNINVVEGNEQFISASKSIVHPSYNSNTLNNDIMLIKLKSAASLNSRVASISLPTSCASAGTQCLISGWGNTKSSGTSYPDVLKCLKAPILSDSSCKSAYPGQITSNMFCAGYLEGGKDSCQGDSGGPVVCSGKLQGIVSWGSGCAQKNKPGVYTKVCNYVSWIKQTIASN
- PROCEDURE_SUMMARY: Trypsin inhibition assay (kinetic, substrate Phe-Pro-Arg-AMC)
- Format: biochemical
Where a SMILES comes first, the peptide text is derived from it. Bridges are numbered along the chain shown (N, C = ends).
Answers are plain numbers, as −log10 of the molar value.

>  <COMPOUND>
CC(C)[C@H](NC(=O)[C@H](C)N)C(=O)N[C@@H](CCCNC(=N)N)C(=O)N1CCC[C@H]1C(=O)N1CCC[C@H]1C(=O)N[C@@H](Cc1ccccc1)C(=O)N[C@@H](CCCNC(=N)N)C(=O)N[C@H]1CSSC[C@@H](C(=O)O)NC(=O)[C@H](Cc2ccccc2)NC(=O)[C@H](C)NC(=O)[C@H](C)NC(=O)[C@H](CCCCN)NC1=O [Kunitzin-AH, AVRPPFRCKAAFC] (H-AVRPPFRCKAAFC-OH; disulfide 8-13)

>  <pKi>
5.93

$$$$
>  <COMPOUND>
CC(C)[C@H](NC(=O)[C@H](C)N)C(=O)N[C@@H](CCCNC(=N)N)C(=O)N1CCC[C@H]1C(=O)N1CCC[C@H]1C(=O)N[C@@H](Cc1ccccc1)C(=O)N[C@@H](CCCNC(=N)N)C(=O)N[C@@H](CS)C(=O)N[C@@H](CCCCN)C(=O)N[C@@H](C)C(=O)N[C@@H](C)C(=O)N[C@@H](Cc1ccccc1)C(=O)O [AH-1363, AVRPPFRCKAAF] (H-AVRPPFRCKAAF-OH; N-terminus and C-terminus assumed)

>  <pKi>
4.01

$$$$
>  <COMPOUND>
CC(C)[C@H](NC(=O)[C@H](C)N)C(=O)N[C@@H](CCCNC(=N)N)C(=O)N1CCC[C@H]1C(=O)N1CCC[C@H]1C(=O)N[C@@H](Cc1ccccc1)C(=O)N[C@@H](CCCNC(=N)N)C(=O)N[C@H]1CSSC[C@@H](C(=O)O)NC(=O)[C@H](CCCCN)NC(=O)[C@H](C)NC(=O)[C@H](C)NC(=O)[C@H](CCCCN)NC1=O [AH-1447, AVRPPFRCKAAKC] (H-AVRPPFRCKAAKC-OH; disulfide 8-13)

>  <pKi>
3.46

$$$$

Could you now consider this next compound?
The value of pKi recorded for CC(C)[C@H](NC(=O)[C@H](C)N)C(=O)N[C@@H](CCCNC(=N)N)C(=O)N1CCC[C@H]1C(=O)N1CCC[C@H]1C(=O)N[C@@H](Cc1ccccc1)C(=O)N[C@@H](CCCNC(=N)N)C(=O)N[C@@H](CS)C(=O)N[C@@H](CCCCN)C(=O)N[C@@H](C)C(=O)N[C@@H](C)C(=O)N[C@@H](Cc1ccccc1)C(=O)N[C@@H](CS)C(=O)O [AH-unoxidized, AVRPPFRCKAAFC] (H-AVRPPFRCKAAFC-OH) when tested on bovine trypsin (Bos taurus, UniProt P00760) reads 4.22

###

- System: horse erythrocytes
- PROCEDURE_SUMMARY: Hemolytic activity assay
- Assay type: cell-based
- RECORDED_CONDITIONS: 2% horse erythrocytes suspension, 37 °C, two hours
- Experimental: Hemolysis assay was conducted through the incubation of peptides and 2% horse erythrocytes suspension (T.C.S. Biosciences Ltd. Buckingham, UK) at 37 °C for two hours as detailed in the previous study. […] The absorbance values were subsequently measured with a Synergy H.T. plate reader (BioTech, Minneapolis, MN, USA) and calculated by using Gen 5 software at a wavelength of 550 nm.
Where a SMILES comes first, the peptide text is derived from it. Bridges are numbered along the chain shown (N, C = ends).
MEASURED_QUANTITY: Hemolysis

See these solved cases before continuing.
>  <MOLECULE>
CC(C)[C@H](NC(=O)[C@H](C)N)C(=O)N[C@@H](CCCNC(=N)N)C(=O)N1CCC[C@H]1C(=O)N1CCC[C@H]1C(=O)N[C@@H](Cc1ccccc1)C(=O)N[C@@H](CCCNC(=N)N)C(=O)N[C@@H](CS)C(=O)N[C@@H](CCCCN)C(=O)N[C@@H](C)C(=O)N[C@@H](C)C(=O)N[C@@H](Cc1ccccc1)C(=O)O [AH-1363, AVRPPFRCKAAF] (H-AVRPPFRCKAAF-OH; N-terminus and C-terminus assumed)

>  <ASSAY_SYSTEM>
horse erythrocytes

>  <ENDPOINT_RESULT>
>512 µM

$$$$
>  <MOLECULE>
CC[C@H](C)[C@@H]1NC(=O)[C@H](CCCCN)NC(=O)[C@@H](NC(=O)[C@@H](N)CCCNC(=N)N)CSSC[C@@H](C(=O)O)NC(=O)[C@H](Cc2ccccc2)NC(=O)[C@H]([C@@H](C)CC)NC1=O [AH-880-I, RCKIIFC] (H-RCKIIFC-OH; disulfide 2-7)

>  <ASSAY_SYSTEM>
horse erythrocytes

>  <ENDPOINT_RESULT>
>512 µM

$$$$

Continue with the molecule presented below.
According to the records, this molecule C[C@@H]1NC(=O)[C@H](C)NC(=O)[C@H](CCCCN)NC(=O)[C@@H](NC(=O)[C@@H](N)CCCNC(=N)N)CSSC[C@@H](C(=O)O)NC(=O)[C@H](Cc2ccccc2)NC1=O [AH-798, RCKAAFC] (H-RCKAAFC-OH; disulfide 2-7) displays Hemolysis of >512 µM
